- Measurement Target: JAK2 (Homo sapiens)
- Sequence (O60674 whole entry): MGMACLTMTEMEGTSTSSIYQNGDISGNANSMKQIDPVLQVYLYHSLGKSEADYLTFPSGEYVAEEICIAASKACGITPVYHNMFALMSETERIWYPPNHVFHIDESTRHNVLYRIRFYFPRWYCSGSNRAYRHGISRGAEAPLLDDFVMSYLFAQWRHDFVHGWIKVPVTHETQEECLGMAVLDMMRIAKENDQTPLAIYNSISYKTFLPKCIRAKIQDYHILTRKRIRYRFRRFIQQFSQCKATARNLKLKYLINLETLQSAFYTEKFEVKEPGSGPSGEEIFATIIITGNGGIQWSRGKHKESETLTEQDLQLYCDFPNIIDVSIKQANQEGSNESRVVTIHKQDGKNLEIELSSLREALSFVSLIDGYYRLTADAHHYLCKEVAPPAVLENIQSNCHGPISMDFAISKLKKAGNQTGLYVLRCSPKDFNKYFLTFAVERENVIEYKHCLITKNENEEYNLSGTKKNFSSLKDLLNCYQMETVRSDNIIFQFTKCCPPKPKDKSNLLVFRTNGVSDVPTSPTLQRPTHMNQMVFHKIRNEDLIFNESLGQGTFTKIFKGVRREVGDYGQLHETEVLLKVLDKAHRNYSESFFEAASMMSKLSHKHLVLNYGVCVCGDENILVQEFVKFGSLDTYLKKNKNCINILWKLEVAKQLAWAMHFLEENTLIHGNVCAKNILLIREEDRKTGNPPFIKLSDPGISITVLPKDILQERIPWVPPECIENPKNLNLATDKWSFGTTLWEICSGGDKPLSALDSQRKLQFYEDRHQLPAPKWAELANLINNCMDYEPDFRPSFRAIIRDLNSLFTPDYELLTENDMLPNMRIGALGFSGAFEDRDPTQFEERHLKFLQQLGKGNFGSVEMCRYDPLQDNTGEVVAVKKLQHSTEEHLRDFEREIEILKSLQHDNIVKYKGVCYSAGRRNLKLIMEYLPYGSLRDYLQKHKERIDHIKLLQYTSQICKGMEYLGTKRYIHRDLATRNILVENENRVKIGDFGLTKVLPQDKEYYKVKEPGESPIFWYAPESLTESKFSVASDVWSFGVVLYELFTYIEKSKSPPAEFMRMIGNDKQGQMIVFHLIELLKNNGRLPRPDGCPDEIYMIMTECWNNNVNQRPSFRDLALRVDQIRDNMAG
- Protocol Description: Lance Ultra Kinase Assay, recombinant JAK2
- Assay Setup: 5 mM ATP
pIC50: −log10 of the molar value.
Experimental Readout: pIC50

As a guide, the following entries are already answered.
{"Molecule": "COC[C@H](C(=O)Nc1cccc2c(-c3nc(Nc4cnc(CO)c(OC)c4)ncc3F)c[nH]c12)N1CCN(C)CC1", "pIC50": 7.92}
{"Molecule": "COC[C@H](C(=O)Nc1cccc2c(-c3nc(Nc4ccc(C(C)O)nc4)ncc3F)c[nH]c12)N1CCN(C)CC1 (single isomer, unassigned; isomer 2) [Example 9]", "pIC50": 7.70}
{"Molecule": "COC[C@H](C(=O)Nc1cccc2c(-c3nc(Nc4cnn(-c5ccccc5C(=O)OC)c4)ncc3F)c[nH]c12)N1CCN(C)CC1", "pIC50": 6.34}

[P] COC[C@H](C(=O)Nc1cccc2c(-c3nc(Nc4cnn(C5CCOC5)c4)ncc3F)c[nH]c12)N1CCN(C)CC1 (single isomer, unassigned; isomer 1) [Example 30]
[Q] COC[C@H](C(=O)Nc1cccc2c(-c3nc(Nc4ccc(CCO)nc4)ncc3F)c[nH]c12)N1CCN(C)CC1
Task: Given the two records P and Q , choose the one whose pIC50 value is lower. Choose, then provide that item's label.
Result: Q
(Q: 6.80, P: 7.02)

[1] CNCCOc1ccc(Nc2ncc(F)c(-c3c[nH]c4c(NC(=O)[C@@H](COC)N5CCN(C)CC5)cccc34)n2)cn1
[2] COC[C@H](C(=O)Nc1cccc2c(-c3nc(Nc4ccc(-n5ccnc5)nc4)ncc3F)c[nH]c12)N1CCN(C)CC1
Task: Given the two records 1 and 2 , choose the one whose pIC50 value is lower. Choose, then provide that item's label.
Result: 2

meta.source: patent US12606544B2
